List of IC50 values.
assayedTarget: EGFR tyrosine kinase (Homo sapiens)
Construct: Recombinant intracellular fragments of EGFR, erbB2 and erbB4
Sequence (P00533 669-1210 limits assumed): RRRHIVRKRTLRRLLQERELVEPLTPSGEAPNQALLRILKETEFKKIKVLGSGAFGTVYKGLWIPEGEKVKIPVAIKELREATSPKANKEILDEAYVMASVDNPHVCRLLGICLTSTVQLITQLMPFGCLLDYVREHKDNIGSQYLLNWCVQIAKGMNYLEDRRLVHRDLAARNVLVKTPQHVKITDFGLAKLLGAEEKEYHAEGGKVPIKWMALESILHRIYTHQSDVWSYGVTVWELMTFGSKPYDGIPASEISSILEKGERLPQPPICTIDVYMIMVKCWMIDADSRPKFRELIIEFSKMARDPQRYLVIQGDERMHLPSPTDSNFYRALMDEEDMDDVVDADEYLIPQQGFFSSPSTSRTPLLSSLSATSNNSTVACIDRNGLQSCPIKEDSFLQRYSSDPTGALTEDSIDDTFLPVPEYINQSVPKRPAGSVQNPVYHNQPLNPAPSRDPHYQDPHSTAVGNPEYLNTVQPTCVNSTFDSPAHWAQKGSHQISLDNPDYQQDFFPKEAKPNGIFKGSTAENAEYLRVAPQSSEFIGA
assayOverview: Test (a) protein tyrosine kinase phosphorylation assay, EGFR
settings: recombinant intracellular fragment, ATP at Km; read-out: IC50 Test (a): Inhibition of EGFR tyrosine kinase protein phosphorylation

C[C@@H](Oc1cccc2ncnc(Nc3ccc(C(=O)N4CCCCC4)c(Cl)c3)c12)C(=O)N(C)CCO [Example 2]
869 nM

Switching to the query record.
Ask: Output measured IC50 for this item: C[C@@H](Oc1cccc2ncnc(Nc3ccc(C(=O)N4CCCCCC4)c(Cl)c3)c12)C(=O)N(C)CCO [Example 1]
Reply: 333 nM

----------
assayedTarget: erbB2 tyrosine kinase (Homo sapiens)
Construct: Recombinant intracellular fragments of EGFR, erbB2 and erbB4
Sequence (P04626 676-1255 limits assumed): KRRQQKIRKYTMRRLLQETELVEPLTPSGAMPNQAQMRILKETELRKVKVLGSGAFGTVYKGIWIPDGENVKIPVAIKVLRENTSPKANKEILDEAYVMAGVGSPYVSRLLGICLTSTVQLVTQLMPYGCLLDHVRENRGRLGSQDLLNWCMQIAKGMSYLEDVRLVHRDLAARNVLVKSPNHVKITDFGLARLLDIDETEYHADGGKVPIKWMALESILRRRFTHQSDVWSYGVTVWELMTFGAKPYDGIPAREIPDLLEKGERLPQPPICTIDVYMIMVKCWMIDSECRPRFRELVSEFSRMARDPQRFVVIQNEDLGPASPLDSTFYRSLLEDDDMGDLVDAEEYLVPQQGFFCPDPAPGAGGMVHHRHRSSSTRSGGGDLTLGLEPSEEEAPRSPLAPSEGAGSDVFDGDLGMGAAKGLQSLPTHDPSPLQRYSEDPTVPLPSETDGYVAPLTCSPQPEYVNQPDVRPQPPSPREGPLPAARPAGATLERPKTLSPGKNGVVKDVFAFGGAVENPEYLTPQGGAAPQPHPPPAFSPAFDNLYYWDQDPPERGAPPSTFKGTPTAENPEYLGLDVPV
assayOverview: Test (a) protein tyrosine kinase phosphorylation assay, erbB2
settings: recombinant intracellular fragment, ATP at Km; read-out: IC50 Test (a): Inhibition of erbB2 tyrosine kinase protein phosphorylation
measurementKind: pIC50
// field semantics: pIC50 = negative decimal log of concentration (mol/L)

C[C@@H](Oc1cccc2ncnc(Nc3ccc(C(=O)N4CCCCCC4)c(Cl)c3)c12)C(=O)N(C)CCO
7.82

Ask: Fill: pIC50 (erbB2 tyrosine kinase (Homo sapiens)) for this compound `C[C@@H](Oc1cccc2ncnc(Nc3ccc(C(=O)N4CCCCC4)c(Cl)c3)c12)C(=O)N(C)CCO`
Reply: 7.66
